# System: PCSK9 gene
# Test Description: PCSK9 gRNA/SpCas9 editing in primary cynomolgus hepatocytes (Tables 2, 22)
# Assay type: cell-based, cynomolgus monkey
# Condition Label: 2500 ng/RNA/mL; SpCas9 mRNA MS002 1:1 by weight
m = 2'-O-methyl; r = 2'-OH (RNA)
Measured Cyno Primary Hepatocyte Editing % 2500 accompanies every entry in the list below.

{"Molecule": "GA173: PCSK9 gRNA; protospacer CTTGGTGAGGTATCCCCGGC (SEQ ID NO: 167) (nucleic acid, sugars from the 5' end m3 r94 m3, linkages s3 o93 s3 (s phosphorothioate, o phosphodiester), T or U not given here) guide: CUUGGUGAGGUAUCCCCGGCGUUUUAGAGCUAGAAAUAGCAAGUUAAAAUAAGGCUAGUCCGUUAUCAACUUGAAAAAGUGGCACCGAGUCGGUGCUUUU", "Unit Of Measurement": "%", "Cyno Primary Hepatocyte Editing % 2500": 35.03}
{"Molecule": "GA160: PCSK9 gRNA; protospacer GCCTTGCGTTCCGAGGAGGA (SEQ ID NO: 154) (nucleic acid, sugars from the 5' end m3 r94 m3, linkages s3 o93 s3 (s phosphorothioate, o phosphodiester), T or U not given here) guide: GCCUUGCGUUCCGAGGAGGAGUUUUAGAGCUAGAAAUAGCAAGUUAAAAUAAGGCUAGUCCGUUAUCAACUUGAAAAAGUGGCACCGAGUCGGUGCUUUU", "Unit Of Measurement": "%", "Cyno Primary Hepatocyte Editing % 2500": 23.15}
{"Molecule": "GA215: PCSK9 gRNA; protospacer CAGCGGCCGGGATGCCGGCG (SEQ ID NO: 209) (nucleic acid, sugars from the 5' end m3 r94 m3, linkages s3 o93 s3 (s phosphorothioate, o phosphodiester), T or U not given here) guide: CAGCGGCCGGGAUGCCGGCGGUUUUAGAGCUAGAAAUAGCAAGUUAAAAUAAGGCUAGUCCGUUAUCAACUUGAAAAAGUGGCACCGAGUCGGUGCUUUU", "Unit Of Measurement": "%", "Cyno Primary Hepatocyte Editing % 2500": 7.52}
